Measured koff by item
Molecular target: T1, hGITR.mmh (human)
T1 construct: soluble monomeric construct; also called human (h) GITR.mmh; monomeric human GITR
T1 chain: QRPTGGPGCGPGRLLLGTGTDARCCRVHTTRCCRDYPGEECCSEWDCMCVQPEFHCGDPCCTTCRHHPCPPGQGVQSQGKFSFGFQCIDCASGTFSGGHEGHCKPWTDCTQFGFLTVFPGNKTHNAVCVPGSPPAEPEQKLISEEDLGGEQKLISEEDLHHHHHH
Assay: SPR 37C, mAb capture
Number in s⁻¹, nothing else.

Example results:
{"binder": "H4H14470P (antibody, human IgG4, V domains shown, human IgG4 (H4H)) VH: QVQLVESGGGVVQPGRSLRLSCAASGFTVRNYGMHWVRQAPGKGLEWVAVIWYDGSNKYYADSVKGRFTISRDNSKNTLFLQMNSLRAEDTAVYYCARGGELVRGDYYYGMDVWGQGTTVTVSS VL: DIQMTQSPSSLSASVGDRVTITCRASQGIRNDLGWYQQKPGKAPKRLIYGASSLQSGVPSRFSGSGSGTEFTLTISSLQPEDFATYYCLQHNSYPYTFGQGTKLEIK", "measured parameter": "koff", "reading": 0.0143}
{"binder": "H1H14495P (antibody, human IgG1, V domains shown, human IgG1 (H1H)) VH: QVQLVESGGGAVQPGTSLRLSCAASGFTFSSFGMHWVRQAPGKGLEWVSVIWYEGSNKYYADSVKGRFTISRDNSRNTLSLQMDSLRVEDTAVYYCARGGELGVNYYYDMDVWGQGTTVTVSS VL: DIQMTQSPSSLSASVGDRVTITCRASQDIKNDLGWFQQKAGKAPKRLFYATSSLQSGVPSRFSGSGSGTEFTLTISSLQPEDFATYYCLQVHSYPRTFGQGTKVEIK", "measured parameter": "koff", "reading": 0.00127}
{"binder": "H4H14475P (antibody, human IgG4, V domains shown, human IgG4 (H4H)) VH: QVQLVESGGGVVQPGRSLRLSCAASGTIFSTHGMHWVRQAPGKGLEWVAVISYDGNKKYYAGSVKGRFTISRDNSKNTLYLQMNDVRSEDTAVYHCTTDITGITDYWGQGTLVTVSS VL: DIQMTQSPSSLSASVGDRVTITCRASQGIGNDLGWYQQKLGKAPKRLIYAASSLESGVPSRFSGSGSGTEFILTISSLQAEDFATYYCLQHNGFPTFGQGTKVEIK", "measured parameter": "koff", "reading": 0.014}

Turning to the following binder.
Req: GET /values?readout=koff&item= H1H14520P (antibody, human IgG1, V domains shown, human IgG1 (H1H)) VH: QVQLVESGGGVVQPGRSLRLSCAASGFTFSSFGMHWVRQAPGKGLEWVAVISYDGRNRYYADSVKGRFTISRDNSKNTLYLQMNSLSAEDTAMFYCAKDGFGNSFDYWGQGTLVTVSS VL: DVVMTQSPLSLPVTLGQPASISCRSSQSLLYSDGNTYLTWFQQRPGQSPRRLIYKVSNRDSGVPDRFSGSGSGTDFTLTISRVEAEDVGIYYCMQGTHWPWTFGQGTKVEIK
Resp: 0.0167
